testContext: in water, 298.15 K
propertyLabel: solubility (mole fraction)
Format: numeric value only, no unit, no commentary.

The reported value for O=C(O)[C@@H]1C[C@@H](O)CN1 in terms of solubility (mole fraction) is 0.0511

====

testContext: in dichloromethane, 283.15 K
propertyLabel: solubility (mole fraction)
Answer with a bare number; do not write a unit.

The measured solubility (mole fraction) associated with O=C(O)[C@@H]1C[C@@H](O)CN1 reads 0.000134

====

testContext: in isobutanol, 283.15 K
propertyLabel: solubility (mole fraction)
Reply with just the number.

Recorded result, O=C(O)[C@@H]1C[C@@H](O)CN1 , solubility (mole fraction): 6.9e-05

====

testContext: in methanol, 293.15 K
propertyLabel: solubility (mole fraction)

Given item O=C(O)[C@@H]1C[C@@H](O)CN1 , the value recorded as its solubility (mole fraction) is 0.000171

====

testContext: in acetone, 323.15 K
propertyLabel: solubility (mole fraction)
Answer as a number with no unit attached.

The reported value for O=C(O)[C@@H]1C[C@@H](O)CN1 in terms of solubility (mole fraction) is 0.00383

====

testContext: in ethanol, 333.15 K
propertyLabel: solubility (mole fraction)
When you answer, write just the number.

Per the record, O=C(O)[C@@H]1C[C@@H](O)CN1 has solubility (mole fraction) of 0.000573

====

testContext: in 2-butanone, 308.15 K
propertyLabel: solubility (mole fraction)
Would you mind answering with just the numeric figure?

Measured solubility (mole fraction) of O=C(O)[C@@H]1C[C@@H](O)CN1 : 0.000382

====

testContext: in acetone, 303.15 K
propertyLabel: solubility (mole fraction)
Response field accepts a number only; no unit should be typed.

Lookup result for O=C(O)[C@@H]1C[C@@H](O)CN1 ; measured solubility (mole fraction): 0.00205

====

testContext: in 1,4-dioxane, 288.15 K
propertyLabel: solubility (mole fraction)
Output: the number by itself.

Value of solubility (mole fraction) reported for the molecule O=C(O)[C@@H]1C[C@@H](O)CN1 is 0.00041

Ref: BigSolDB 2.1
